# ASSAY_TARGET: T1, human CGRP receptor (human CRLR / human RAMP1 heterodimer) (human, UniProt Q16602 23-461; O60894 27-148)
# T1 construct: Full-length receptor: endogenous on SK-N-MC (HTB-10) cells in the cAMP assay; also called hCGRP receptor on SK-N-MC (HTB-10) cells; Human CGRP Receptor/AMID detergent-solubilized cell lysate
# T1 sequence (Q16602 23-461 limits assumed, chain 1 of 2): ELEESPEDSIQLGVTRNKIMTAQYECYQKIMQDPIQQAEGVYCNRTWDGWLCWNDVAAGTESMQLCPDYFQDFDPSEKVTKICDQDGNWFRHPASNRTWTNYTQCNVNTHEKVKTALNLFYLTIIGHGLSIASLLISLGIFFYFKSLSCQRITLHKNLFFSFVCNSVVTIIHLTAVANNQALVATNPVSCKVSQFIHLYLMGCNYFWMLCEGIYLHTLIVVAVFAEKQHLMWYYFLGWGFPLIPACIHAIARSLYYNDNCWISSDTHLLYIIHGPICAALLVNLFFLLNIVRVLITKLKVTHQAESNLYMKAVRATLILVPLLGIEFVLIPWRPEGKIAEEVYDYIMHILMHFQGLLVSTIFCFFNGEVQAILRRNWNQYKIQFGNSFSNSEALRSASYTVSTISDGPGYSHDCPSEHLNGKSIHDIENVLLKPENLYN
# T1 sequence (O60894 27-148 limits assumed, chain 2 of 2): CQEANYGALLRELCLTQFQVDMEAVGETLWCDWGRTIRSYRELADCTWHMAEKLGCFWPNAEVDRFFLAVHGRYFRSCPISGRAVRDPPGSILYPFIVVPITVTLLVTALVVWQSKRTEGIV
# EXPERIMENTAL_PROTOCOL: yeast-displayed Fab, FACS, detergent-solubilized lysate of human CGRP receptor-expressing cells vs blank cells
VALUE_KIND: Human CGRP Receptor/Blank Cells Specific Binding (ratio)
Give your result in ratio as a bare value.

So for anti-CGRP receptor variant 04, yeast-displayed Fab (Fab, V domains shown, also called Variant Ab ID 04) VH: QVQLVESGGGVVQPGRSLRLSCAASGFTFSSFGMHWVRQAPGKGLEWVAVISFDGSIKYSVDSVKGRFTISRDNSKNTLFLQMNSLRAEDTAVYYCARDRLNYYRSFGYYGYHYYGMAVWGQGTTVTVSS VL: QSVLTQPPSVSAAPGQKVTISCSGSSSNIGNNYVSWYQQLPGTAPKLLIYDNNKRPSGIPDRFSGSKSGTSATLGITGLQTGDEADYYCGTWDSRLSAVVFGGGTKLTVLG , the logged Human CGRP Receptor/Blank Cells Specific Binding turned out to be 9.5

So for anti-CGRP receptor variant 06, yeast-displayed Fab (Fab, V domains shown, also called Variant Ab ID 06) VH: QVQLVESGGGVVQPGRSLRLSCAASGFTFSSFGMHWVRQAPGKGLEWVAVISFDGSIKYSVDSVKGRFTISRDNSKNTLFLQMNSLRAEDTAVYYCARDRLNYYESSGYYHYKYYGMAVWGQGTTVTVSS VL: QSVLTQPPSVSAAPGQKVTISCSGSYSNIGRKSVSWYQQLPGTAPKLLIYDNNKRPSGIPDRFSGSKSGTSATLGITGLQTGDEADYYCGTWDSRLSAVVFGGGTKLTVLG , the logged Human CGRP Receptor/Blank Cells Specific Binding turned out to be 17.5
